target: T1, hRET.mFc (human); assay: SPR Biacore T200, mAb capture, 37 C
T1 construct: also called dimeric human RET
# Lookup of reported koff keyed by entry

{"Binder": "H4H8056P (antibody, human IgG4, V domains shown, human IgG4 Fc (H4H prefix)) VH: QVQLVESGGGVVQPGRSLRLSCAASGFTFRNYGMHWVRQAPGKGLEWVAVKRYDGSDEYFVDSVKGRFTISRDNSKNTLFLQMNSLRVDDTAVYYCARETPITGTTLDYWGQGTLVTVSS VL: DIQMTQSPSSLSASVGDRVTITCRTSQSITNYLNWYQQKPGKAPKLLIYAASRSQSGVPSRFSGSGSGTDFTLTISSLQPEDFATYYCQQSYSTPLTFGGGTKVEIK", "koff": "0.00128 s⁻¹"}
{"Binder": "H4H8080P (antibody, human IgG4, V domains shown, human IgG4 Fc (H4H prefix)) VH: EVQLVESGGGLVQSGGSLRLSCVASGFTFSTYAMTWVRQAPGRGLEWVSAISGSGASTYYADSLKGRFTVSRDNSKNTLYLQMNSLRAEDTAVYYCSKDHRNYDSDYDMDVWGQGTTVTVSS VL: DIQMTQSPSSLSASVGDRVTITCRASQGIRNYLGWYQQKPGKAPKRLIYTASSLQSGVPSRFRGSGSGTEFTLTISSLQPEDFATYYCLQHNSYPYTFGQGTKLEIK", "koff": "0.00107 s⁻¹"}
{"Binder": "H4H8084P (antibody, human IgG4, V domains shown, human IgG4 Fc (H4H prefix)) VH: QVQLVESGGGVVQPGRSLRLSCEASGFTFRNYGMHWVRQAPGKGLDWVSTIYYDGSDEYYSDSVKGRFTISRDNSKNTLYLQMNSLRAEDTAVYYCARDPPSFRYFDYWGQGTLVTVSS VL: DIQMTQSPSTLSASVGDRVTITCRASQSIRSWLTWYQQKPGKAPKVLIYKASTLERGVPSRFSGSGSGTEFTLTISSLQPEDFATYYCHQYSSYSYTFGQGTKLEIK", "koff": "0.00085 s⁻¹"}
{"Binder": "H4H8071P (antibody, human IgG4, V domains shown, human IgG4 Fc (H4H prefix)) VH: EVQLVESGGGLVQPGGSLRLSCAASGFTFTTYFMSWVRQAPGKGLEWVSGISGSGTSTFYVDSMKGRFTISRDNSKNTLYLQMNSLRVEDTAVYFCAKENTYGHFDFWGQGTLVTVSS VL: DIQLTQSPSFLSASVGDRVTITCWASQDISSHLAWYQQKPGKAPKVLIYDASTLQSGVPSRISGSGSGTEFTLTISSLQPEDFAAYYCQQLDGYPYTFGQGTKLEIK", "koff": "0.000312 s⁻¹"}

Data origin: patent US20220185900A1
